Below, each entry is listed with its recorded sPAP HepG2 B6 assay: Mean % of wild type EC50.
# subjectOfTest: T1, gp130 on HepG2 B6 cells (UniProt P40189 23-918, limits assumed)
# T1 sequence (looked up): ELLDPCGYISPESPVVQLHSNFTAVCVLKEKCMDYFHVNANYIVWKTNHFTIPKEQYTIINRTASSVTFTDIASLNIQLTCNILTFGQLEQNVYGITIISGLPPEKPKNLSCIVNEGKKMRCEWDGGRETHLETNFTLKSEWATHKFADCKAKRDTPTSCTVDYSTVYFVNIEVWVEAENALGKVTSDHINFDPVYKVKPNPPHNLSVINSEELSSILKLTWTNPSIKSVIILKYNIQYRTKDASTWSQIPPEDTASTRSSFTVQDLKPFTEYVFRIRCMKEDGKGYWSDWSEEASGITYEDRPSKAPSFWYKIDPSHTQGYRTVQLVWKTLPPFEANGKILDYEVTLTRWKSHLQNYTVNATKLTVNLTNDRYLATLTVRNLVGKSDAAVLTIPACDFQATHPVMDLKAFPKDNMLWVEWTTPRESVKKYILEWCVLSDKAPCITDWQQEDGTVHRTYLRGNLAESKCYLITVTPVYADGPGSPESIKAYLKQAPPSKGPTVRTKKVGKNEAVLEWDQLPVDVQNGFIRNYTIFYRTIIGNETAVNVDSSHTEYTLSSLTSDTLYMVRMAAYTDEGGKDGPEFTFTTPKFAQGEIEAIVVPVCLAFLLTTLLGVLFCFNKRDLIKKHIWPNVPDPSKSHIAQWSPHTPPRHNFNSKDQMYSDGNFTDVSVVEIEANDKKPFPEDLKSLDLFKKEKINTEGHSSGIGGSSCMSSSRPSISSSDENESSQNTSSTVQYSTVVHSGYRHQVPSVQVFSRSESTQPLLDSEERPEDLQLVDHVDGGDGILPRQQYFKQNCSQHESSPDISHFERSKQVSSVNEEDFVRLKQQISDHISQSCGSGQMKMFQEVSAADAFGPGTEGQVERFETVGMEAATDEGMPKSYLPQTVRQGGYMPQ
# protocolDescription: cell-based or functional assay
propertyName: sPAP HepG2 B6 assay: Mean % of wild type EC50 (%)

INSERT INTO results (binder, experimentalvalue) VALUES
  ('wild type OSM-GST fusion (ligand, pGEX-derived fusion; also called wt OSM-GST; GST-hOSM; not shown: glutathione S-transferase (GST) encoded by modified pGEX-3X (Pharmacia), N-terminal, up to the Factor Xa site region sho) AAIGSCSKEYRVLLGQLQKQTDLMQDTSRLLDPYIRIQGLDVPKLREHCRERPGAFPSEETLRGLGRRGFLQTLNATLGCVLHRLADLEQRLPKAQDLERSGLNIEDLEKLQMARPNILGLRNNIYCMAQLLDNSDTAEPTKAGRGASQPPTPTPASDAFQRKLEGCRFLHGYHRFMHSVGRVFSKWGESPNRSRR', 100),
  ('OSM-GST mutant K19A (ligand, Alanine mutant of m4; also called (12)K19A; 12 K19A; not shown: Its linker is left out) AAIGSCSKEYRVLLGQLQAQTDLMQDTSRLLDPYIRIQGLDVPKLREHCRERPGAFPSEETLRGLGRRGFLQTLNATLGCVLHRLADLEQRLPKAQDLERSGLNIEDLEKLQMARPNILGLRNNIYCMAQLLDNSDTAEPTKAGRGASQPPTPTPASDAFQRKLEGCRFLHGYHRFMHSVGRVFSKWGESPNRSRR', 67.5),
  ('OSM-GST mutant P116A (ligand, not shown: a dimerising Fc or GST; large carriers; small tags and cut ends, Alanine mutant of m4; also called (17)P116A; 17 P116A) AAIGSCSKEYRVLLGQLQKQTDLMQDTSRLLDPYIRIQGLDVPKLREHCRERPGAFPSEETLRGLGRRGFLQTLNATLGCVLHRLADLEQRLPKAQDLERSGLNIEDLEKLQMARANILGLRNNIYCMAQLLDNSDTAEPTKAGRGASQPPTPTPASDAFQRKLEGCRFLHGYHRFMHSVGRVFSKWGESPNRSRR', 75.5);
